System: OVCAR-3
Assay: NCI tumour cell line growth inhibition, 48 h
Active and inactive are the calls of the source. Cut-off read from the data, not from the text of the source: active = GI50 up to about 1.1 µM and inactive = higher.
The categories you may choose from are YES = active, NO = inactive

// known answers, use as guide
{"columns": ["molecule", "class.name"],
 "data": [
  ["CCOP(=O)(OCC)c1c(C(=O)OC)cc(=O)[nH]c1-c1ccc(C)cc1", "NO"],
  ["c1ccc(C2CC(c3ccc4ccccc4c3)=Nc3ccccc3S2)cc1 (stereo unspecified)", "NO"],
  ["COc1ccc2[nH]c3c(C)c4ccnc(NCCCN(C)CCCNc5ccc([N+](=O)[O-])c6[nH]c7ccccc7c(=O)c56)c4c(C)c3c2c1", "YES"],
  ["COc1ccc(C(=O)/C=C/c2ccc(Oc3cc(C(=O)/C=C/c4ccc(O)cc4)c(O)cc3OC)cc2)c(O)c1 [RHUSCHALCONE I]", "NO"],
  ["C1CCN2CC34CC(CC5CCCN(C6CCCC3N6)C54)C2C1 (stereo unspecified)", "NO"],
  ["CN(C(=O)C1=CCC2(CC1)OCCO2)c1ccccc1I", "NO"],
  ["Cc1ccc(S(=O)(=O)N2CCSCCSCCSCCN(S(=O)(=O)c3ccc(C)cc3)CC2)cc1", "NO"],
  ["COC(=O)C1=CC(O)CCC1c1ccc(OC)cc1 (stereo unspecified)", "NO"],
  ["COc1cc(C(=O)C/C(CCC(=O)Nc2ccccc2[N+](=O)[O-])=N\\NC(=O)CC#N)ccc1O", "NO"],
  ["COC(=O)c1ccccc1C1CN=NC12Cc1cccc(C)c1C2=O (stereo unspecified)", "NO"]
]}

In this assay, the call recorded for Cc1ccc(NC(=O)CC2Sc3ccccc3NC2=O)cc1C (stereo unspecified) was what? NO

In this assay, the call recorded for O=C(CC1(O)C(=O)Nc2ccc([N+](=O)[O-])cc21)c1ccc2ccccc2c1 (stereo unspecified) was what? NO

In this assay, the call recorded for `Cc1csc2n(C)c(=O)c3ccccc3[n+]12` was what? NO

In this assay, the call recorded for Cc1ccc(S(=O)(=O)OC2CSSCC2OS(=O)(=O)c2ccc(C)cc2)cc1 (stereo unspecified) was what? NO

In this assay, the call recorded for `C(CCCCc1nnc(N2CCOCC2)o1)CCCc1nnc(N2CCOCC2)o1` was what? NO

In this assay, the call recorded for C1=C(c2ccccc2)C(OC2Oc3ccccc3C=C2c2ccccc2)Oc2ccccc21 (stereo unspecified) was what? NO

In this assay, the call recorded for `C=C1CC/C=C(\C)CCC[C@H](C)[C@@H](O)[C@@H]2OC(=O)C(=C)[C@@H]2C[C@H]1O` was what? NO

In this assay, the call recorded for COC(=O)C1(C(C)C)CCc2c(OC)ccc(OC)c2C1=O (stereo unspecified) was what? NO
